# System: DU-145 prostate
# MEASUREMENT DESCRIPTION: NCI tumour cell line growth inhibition, 48 h; in the data active means GI50 below about 0.43 µM; inactive means the rest
Please state which outcome applies, choosing from active, inactive

Example results:
MOLECULE	EXPERIMENTAL SYSTEM	LABEL
C=C1SC(=Nc2c(C)cc(C)cc2C)N(C(=O)c2sc3ccccc3c2Cl)C12CCCCC2	DU-145 prostate	inactive
CCOC(=O)C1(Br)C(c2ccccc2)NC(=O)NC1(C)Br (centres undefined)	DU-145 prostate	inactive
O=Nc1c(-c2c(O)[nH]c3ccc([N+](=O)[O-])cc23)[nH]c2ccc(O)cc12	DU-145 prostate	active
CCCc1c(CC)c(=N)c2ccccc2n1C	DU-145 prostate	inactive
CCn1c(C(=O)N(C2CC2)C2CC2)cc2c3c(ncn3C)c(Nc3cc(C)n(C)n3)nc21	DU-145 prostate	inactive
COc1ccc(N2Cc3cnc(Nc4ccccc4)nc3N([C@@H]3CC[C@@H](O)C3)C2=O)cc1	DU-145 prostate	inactive
O=C(Nc1ccc(F)cc1)c1ccc(NC2=C(Cl)C(=O)N(Cc3ccccc3)C2=O)cc1	DU-145 prostate	inactive
COc1ccccc1/C=C/[N+](=O)[O-]	DU-145 prostate	inactive
COc1ccc(-c2nc3sc(-c4ccc(Cl)cc4)cn3n2)cc1	DU-145 prostate	inactive
COc1ccc(C2SCC(=O)N2NC(=O)C(O)c2ccccc2)cc1OC (centres undefined)	DU-145 prostate	inactive

Write down the call the test reported for this molecule. Item: Cc1cc(/C=C\c2ccc3ccccc3[n+]2C)c(O)c2ncccc12
inactive

Next record, please: Cc1ccc(S(=O)(=O)NCCNC2=CC(=O)c3nc4ccccc4c4ccnc2c34)cc1
inactive

Subsequent entry: O=C1c2ccc([N+](=O)[O-])cc2-c2c1c1ccccc1c(=O)n2CCCNCCCNCCCn1c2c(c3ccc([N+](=O)[O-])cc3c1=O)C(=O)c1ccccc1-2
inactive

Input C[C@H](NC(=O)[C@@H]1CSSC[C@@H](NC(=O)c2nc3ccccc3cc2O)C(=O)NCC(=O)N1C)c1ccccc1
inactive
